Where do these numbers come from? They come from PubChem BioAssay AID248.

Test system: L1210 leukemia ip in BDF1 mice, survival T/C
Assay: NCI In Vivo Anticancer Drug Screen. Data for tumor model L1210 Leukemia (intraperitoneal) in B6D2F1 (BDF1) mice
Conditions: endpoint: mean survival time; dose: 200.0 mg/kg/injection; schedule: Q01DX001 (ip); vehicle: saline; higher = longer survival
Inconclusive results and toxic doses are left out.
readout-kind: T/C

# molecule, reading
measured = [
    ("CCOC(=O)CN(C)C(=O)OCC", "117 % of control"),
    ("CC(Cc1ccccc1)Nc1ccccc1 (configuration not stated)", "93 % of control"),
    ("[O-]/[N+](=C\\c1ccc(OCc2ccccc2)cc1)c1ccccc1", "108 % of control"),
    ("Nc1nc(N)c(N=Nc2ccccc2S(=O)(=O)O)c(N)n1", "89 % of control"),
    ("O=[N+]([O-])c1cccc(/C=[N+](\\[O-])c2ccccc2)c1", "100 % of control"),
    ("O=[N+]([O-])c1ccc(O)c(/C=N/Nc2c3ccccc3nc3ccccc23)c1", "95 % of control"),
    ("CC1(C)C[N+](C)(Cc2ccccc2)N=C1[O-] (configuration not stated)", "102 % of control"),
    ("COc1cc(NCC(O)C(O)C(O)CO)c([N+](=O)[O-])cc1OC (configuration not stated)", "99 % of control"),
    ("OCC(O)C(O)C(O)C(c1ccccc1)c1ccccc1 (configuration not stated)", "96 % of control"),
    ("O=S(=O)(CS(=O)(=O)Nc1ccccc1)Nc1ccccc1", "94 % of control"),
    ("N#Cc1cn(-c2ccc(Cl)cc2)c2ncccc12", "87 % of control"),
    ("COc1cc(N=Nc2ccccc2)ccc1N", "112 % of control"),
]

----------
Tested on: L1210 leukemia ip in BDF1 mice, survival T/C
Assay: NCI In Vivo Anticancer Drug Screen. Data for tumor model L1210 Leukemia (intraperitoneal) in B6D2F1 (BDF1) mice
Conditions: endpoint: mean survival time; dose: 100.0 mg/kg/injection; schedule: Q01DX009 (ip); vehicle: saline with Tween-80; higher = longer survival
Inconclusive results and toxic doses are left out.

# molecule, T/C
data = [
    ("Cc1ccc(S(=O)(=O)N/N=C2\\CC3(Cl)CCC2C3)cc1 (configuration not stated)", "88 % of control"),
    ("CCOC(=O)C1OC12CCC(C(C)(C)C)CC2 (configuration not stated)", "95 % of control"),
    ("OC1CC2CCC1C2 (configuration not stated)", "94 % of control"),
    ("OC1(c2ccccc2)c2ccccc2C(O)(c2ccccc2)c2c1ccc1ccccc21 (configuration not stated)", "93 % of control"),
    ("c1ccc2cc(Nc3ccc4ccccc4c3)ccc2c1", "106 % of control"),
    ("CCOCc1nc(N)nc(N)c1-c1cccc(Cl)c1", "104 % of control"),
    ("CCCCCC(=O)Nc1cccc(OC(=O)NC)c1", "98 % of control"),
    ("C/C(=C\\c1ccc2c(c1)OCO2)[N+](=O)[O-]", "87 % of control"),
    ("COc1cc([N+](=O)[O-])c(C)cc1Nc1ccc(OC)c(OC)c1", "105 % of control"),
    ("CCOC(=O)NCCCCCCNC(=O)OCC", "95 % of control"),
    ("O=c1cc(Cc2ccccc2)[nH]c(=S)[nH]1", "94 % of control"),
    ("FC(F)(F)c1nc2nc(Br)c(Br)nc2[nH]1", "89 % of control"),
    ("CN(C)NC(=O)CC(NCc1ccccc1)C(=O)O (configuration not stated)", "94 % of control"),
    ("O=S(=O)(c1ccccc1)c1cccs1", "96 % of control"),
    ("COC1/C=C/O[C@@]2(C)Oc3c(C)c(O)c4c(O)c(cc(O)c4c3C2=O)NC(=O)/C(C)=C\\C=C\\[C@H](C)C(O)[C@@H](C)[C@@H](O)[C@@H](C)[C@H](OC(C)=O)[C@@H]1C (some centres not stated)", "104 % of control"),
    ("Cc1ccc(C(=O)C(Br)C(Br)c2ccccc2)cc1 (configuration not stated)", "90 % of control"),
    ("C[N+](C)(C)CCOC(=O)c1ccc(CBr)cc1", "86 % of control"),
    ("O=C(Nc1ccccc1[N+](=O)[O-])C(=O)Nc1ccccc1[N+](=O)[O-]", "86 % of control"),
    ("CCOC(=O)N1Cc2cc3cc(OC)c(OC)cc3nc2C1", "109 % of control"),
    ("Cc1ccc(NC(=O)CC#N)c(C)c1", "113 % of control"),
    ("OC(c1ccccc1)(c1ccccc1)c1ccsc1", "86 % of control"),
    ("O=S(=O)(O)c1ccc(N=Nc2ccc(O)cc2)cc1", "101 % of control"),
    ("CCCCOC(=O)C1OC1(C)c1ccc(C)cc1 (configuration not stated)", "103 % of control"),
    ("O/N=C/c1cccc(/C=N/O)c1", "98 % of control"),
    ("O=C(/C=C/c1ccc(Br)cc1)c1ccc(Cl)cc1", "96 % of control"),
    ("NC(=S)N/N=C/c1ccc(-c2ccccc2)cc1", "100 % of control"),
    ("OCCOc1nc(OCCO)c(Cl)c(C(Cl)(Cl)Cl)n1", "98 % of control"),
    ("O=C(NS(=O)(=O)c1ccc(Cl)cc1)c1cccc2ccccc12", "91 % of control"),
    ("Oc1cc(O)c2c(c1)OC(c1ccc(O)c(O)c1)C(O)C2c1c(O)cc(O)c2c1OC(c1ccc(O)c(O)c1)C(O)C2 (configuration not stated)", "101 % of control"),
    ("CC1(C)OCC(CO)([N+](=O)[O-])CO1", "108 % of control"),
    ("CCOc1ccc2c(O)csc2c1", "93 % of control"),
    ("Cc1ccc(C(=O)c2ccccc2C(=O)O)cc1N", "105 % of control"),
    ("NC(=S)C(=S)NCCO", "103 % of control"),
    ("CCOC(=O)/C=C(\\C)CO (tested in a mixture with another compound)", "93 % of control"),
    ("O=S(=O)(Nc1ccc(CCc2ccc(NS(=O)(=O)c3ccccc3)cc2)cc1)c1ccccc1", "95 % of control"),
    ("C#CCOCC1CNC(=S)O1 (configuration not stated)", "100 % of control"),
    ("CCCC(C(=O)O)c1ccccc1C (configuration not stated)", "102 % of control"),
    ("O=C(Nc1ccc(CCO)cc1)c1ccc(F)cc1", "102 % of control"),
    ("S=c1[nH]c2nc(Cl)c(Cl)nc2[nH]1", "91 % of control"),
    ("O=C1CC(c2ccc(Cl)cc2)NC(c2ccc(Cl)cc2)C1 (configuration not stated)", "101 % of control"),
    ("CN(C)C(=O)c1cccc(NC(=O)Oc2ccccc2)c1", "109 % of control"),
    ("CNCCOc1ccccc1", "101 % of control"),
]
